These measurements were taken from paper PMC9033141.

# test-target: CAXII (Homo sapiens, UniProt O43570);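 also: recombinant CAXII made in E. coli, ANS-fluorescence thermal shift with affinity fitted from Tm versus ligand concentration, intrinsic energy from Kd_obs corrected for deprotonated sulfonamide and Zn-water fractions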
# Construct: made in house; host or cells: E. coli
# Sequence (O43570 25-354): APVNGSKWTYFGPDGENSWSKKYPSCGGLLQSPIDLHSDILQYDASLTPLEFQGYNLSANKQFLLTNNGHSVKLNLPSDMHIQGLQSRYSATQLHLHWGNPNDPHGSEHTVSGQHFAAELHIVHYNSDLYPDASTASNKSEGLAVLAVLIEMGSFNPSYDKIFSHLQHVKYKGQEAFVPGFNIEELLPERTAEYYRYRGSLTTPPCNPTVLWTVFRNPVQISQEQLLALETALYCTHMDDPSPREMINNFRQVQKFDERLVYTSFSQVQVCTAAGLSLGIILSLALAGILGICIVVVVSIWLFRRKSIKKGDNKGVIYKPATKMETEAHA
# experiment-notes: biochemical
# Assay type: binding
# assay-conditions: FTSA, pH 7.0, 37 °C; read-out: Observed Dissociation Constant (Kd_obs), CAXII
pKd: −log10 of the molar value.
Values of pKd greater than or equal to 5 map to yes; values below map to no.

{"compound": "NS(=O)(=O)c1ccc(NCC(CC(=O)NN=Cc2ccccc2)C(=O)NN=Cc2ccccc2)cc1 (stereo not shown)", "discrete-label": "no"}
{"compound": "NS(=O)(=O)c1ccc(NCC(CC(=O)NN=Cc2ccccc2Cl)C(=O)NN=Cc2ccccc2Cl)c(Cl)c1 (stereo not shown) [Compound 10b]", "discrete-label": "no"}
{"compound": "NS(=O)(=O)c1ccc(NCC(CC(=O)NN=Cc2cccc([N+](=O)[O-])c2)C(=O)NN=Cc2cccc([N+](=O)[O-])c2)cc1 (stereo not shown) [Compound 16a]", "discrete-label": "no"}
{"compound": "Cn1c(CC(CNc2ccc(S(N)(=O)=O)cc2)c2n[nH]c(=S)n2C)n[nH]c1=S (stereo not shown) [Compound 24a]", "discrete-label": "yes"}
{"compound": "NS(=O)(=O)c1ccc(NCC(CC(=O)NN=Cc2ccccc2O)C(=O)NN=Cc2ccccc2O)c(Cl)c1 (stereo not shown)", "discrete-label": "yes"}
{"compound": "NNC(=O)CC(CNc1ccc(S(N)(=O)=O)cc1Cl)C(=O)NN (stereo not shown)", "discrete-label": "no"}

In the following, a different compound is considered.
Could you verify whether the entry Cc1csc(N(CCC(=O)O)c2ccc(S(N)(=O)=O)cc2)n1 shows pKd of no less than 5?
yes
